Values from patent US9561289B2

EXPERIMENTAL_TARGET: T1, Human integrin αvβ5 (human, UniProt P06756 31-1048; P18084 24-799, limits assumed)
T1 construct: Bought from Immunological Sciences; coated on microtiter plates
T1 sequence (P06756 31-1048 limits assumed, chain 1 of 2): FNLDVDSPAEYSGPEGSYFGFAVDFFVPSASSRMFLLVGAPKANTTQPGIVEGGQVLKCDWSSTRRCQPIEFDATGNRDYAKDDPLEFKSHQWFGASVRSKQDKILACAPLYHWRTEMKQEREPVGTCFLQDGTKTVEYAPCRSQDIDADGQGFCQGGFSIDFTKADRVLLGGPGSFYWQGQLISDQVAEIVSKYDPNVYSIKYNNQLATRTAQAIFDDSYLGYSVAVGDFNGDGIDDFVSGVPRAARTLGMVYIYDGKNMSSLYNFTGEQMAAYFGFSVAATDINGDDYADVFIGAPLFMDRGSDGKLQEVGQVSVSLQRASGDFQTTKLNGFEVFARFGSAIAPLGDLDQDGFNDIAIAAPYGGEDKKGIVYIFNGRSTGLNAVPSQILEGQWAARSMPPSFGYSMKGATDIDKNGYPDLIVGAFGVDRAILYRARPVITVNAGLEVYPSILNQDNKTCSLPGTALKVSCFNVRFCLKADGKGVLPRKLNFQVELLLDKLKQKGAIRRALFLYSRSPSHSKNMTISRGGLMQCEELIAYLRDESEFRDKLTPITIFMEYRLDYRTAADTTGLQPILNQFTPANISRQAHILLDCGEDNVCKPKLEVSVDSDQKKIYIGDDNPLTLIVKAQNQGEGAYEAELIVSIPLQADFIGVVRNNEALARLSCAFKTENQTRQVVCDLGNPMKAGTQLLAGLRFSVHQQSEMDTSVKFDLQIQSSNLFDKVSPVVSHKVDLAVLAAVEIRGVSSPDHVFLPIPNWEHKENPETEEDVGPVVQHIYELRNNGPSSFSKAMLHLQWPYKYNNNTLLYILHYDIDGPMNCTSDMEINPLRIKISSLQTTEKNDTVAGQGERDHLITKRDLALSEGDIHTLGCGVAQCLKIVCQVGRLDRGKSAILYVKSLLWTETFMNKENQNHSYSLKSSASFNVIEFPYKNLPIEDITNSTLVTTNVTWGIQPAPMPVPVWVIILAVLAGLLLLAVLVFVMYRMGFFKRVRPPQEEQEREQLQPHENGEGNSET
T1 sequence (P18084 24-799 limits assumed, chain 2 of 2): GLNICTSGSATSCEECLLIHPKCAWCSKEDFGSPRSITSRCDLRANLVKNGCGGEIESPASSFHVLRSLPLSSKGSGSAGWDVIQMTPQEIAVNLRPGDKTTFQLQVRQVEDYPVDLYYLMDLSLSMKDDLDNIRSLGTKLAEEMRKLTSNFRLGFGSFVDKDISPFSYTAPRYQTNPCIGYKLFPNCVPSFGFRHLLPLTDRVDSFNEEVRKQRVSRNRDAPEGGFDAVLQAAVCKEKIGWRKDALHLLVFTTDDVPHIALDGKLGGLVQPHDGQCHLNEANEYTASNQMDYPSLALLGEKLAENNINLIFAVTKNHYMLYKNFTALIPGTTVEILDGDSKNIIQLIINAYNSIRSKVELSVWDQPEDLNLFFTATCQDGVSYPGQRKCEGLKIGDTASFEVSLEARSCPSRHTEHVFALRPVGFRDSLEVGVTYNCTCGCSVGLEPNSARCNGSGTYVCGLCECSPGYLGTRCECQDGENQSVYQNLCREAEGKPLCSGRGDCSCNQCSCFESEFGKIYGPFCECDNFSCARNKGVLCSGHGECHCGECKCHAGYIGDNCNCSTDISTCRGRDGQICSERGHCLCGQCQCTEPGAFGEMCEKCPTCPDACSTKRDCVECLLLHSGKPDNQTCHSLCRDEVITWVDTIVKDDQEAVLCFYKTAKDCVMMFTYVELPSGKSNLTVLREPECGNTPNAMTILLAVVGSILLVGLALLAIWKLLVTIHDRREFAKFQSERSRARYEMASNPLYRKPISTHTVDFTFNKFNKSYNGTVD
EXPERIMENT_SUMMARY: competitive binding assay, integrin-coated plate, probe isoDGR/STV-HRP
pKi: −log10 of the molar value. *1 amine or outer side, *2 acyl side, *3 side chain or, on linkers, in order; H or OH if unused. Primed or numbered codes have the meaning given here. Side-chain parts run from the residue outwards. [ ]: non-standard residue; d: D form. The star is where a group is joined. βAsp = O=C(O)[C@H](CC(=O)[*:2])N[*:1]; SMCC = sulfo-SMCC linker; OH′ = O*
READOUT: pKi

| BINDER | READOUT | OBS_VALUE |
| --- | --- | --- |
| cyclo(C([SMCC-NH2])G[βAsp]GRG) (HPLC peak P1 (amido form); also called isoDGR#1-P1) [isoDGR#1-linker conjugate, peak P1] | pKi | 7.46 |
| cyclo(C([SMCC-OH′])G[βAsp]GRG) (HPLC peak P2 (carboxylic form, partial hydrolysis of sulfo-succinimide); also called isoDGR#1-P2) [isoDGR#1-linker conjugate, peak P2] | pKi | 7.28 |
